# Tested on: HeLa Kyoto;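 note: HeLa Kyoto cells arrested at G1/S by double thymidine block, proteins quantified by TMT10plex mass spectrometry in mild NP-40 versus SDS extracts, three biological replicates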
# Test details: solubility in G1/S (NP-40 vs SDS abundance) (log2 ratio); higher = more soluble
# Run conditions: cell cycle stage: G1/S
Exercise: for every item that follows, state its recorded solubility in G1/S (log2).
Lab note: jot down the number only; don't add units.

Entry MMKKKKFKFKVDFELEELSSVPFVNGVLFCKMRLLDGGSFTAESSREVVQANCVRWRKKFSFMCKMSASAATGILDPCIYRVSVRKELKGGKAYAKLGFADLNLAEFAGSGNTTRRCLLEGYDTKNTRQDNSILKVLISMQLMSGDPCFKTPPSTSMSIPIAGESESLQEDRKGGETLKVHLGIADLSAKSASVPDELGACGHSRTSSYASQQSKVSGYSTCHSRSSSFSELCHRRNTSVGSTSTGVESILEPCDEIEQKIAEPNLDTADKEDTASEKLSRCPVKQDSVESQLKRVDDTRVDADDIVEKILQSQDFSLDSSAEEEGLRLFVGPGGSTTFGSHHLPNRVGSGAYEQVVIKR [FAM102B] — recorded solubility in G1/S (log2) = -0.233

The sequence listed as MAAAGAFRLRRAASALLLRSPRLPARELSAPARLYHKKVVDHYENPRNVGSLDKTSKNVGTGLVGAPACGDVMKLQIQVDEKGKIVDARFKTFGCGSAIASSSLATEWVKGKTVEEALTIKNTDIAKELCLPPVKLHCSMLAEDAIKAALADYKLKQEPKKGEAEKK [ISCU] shows solubility in G1/S (log2) equal to 0.467

Measured solubility in G1/S (log2) of MALVASVRVPARVLLRAGARLPGAALGRTERAAGGGDGARRFGSQRVLVEPDAGAGVAVMKFKNPPVNSLSLEFLTELVISLEKLENDKSFRGVILTSDRPGVFSAGLDLTEMCGRSPAHYAGYWKAVQELWLRLYQSNLVLVSAINGACPAGGCLVALTCDYRILADNPRYCIGLNETQLGIIAPFWLKDTLENTIGHRAAERALQLGLLFPPAEALQVGIVDQVVPEEQVQSTALSAIAQWMAIPDHARQLTKAMMRKATASRLVTQRDADVQNFVSFISKDSIQKSLQMYLERLKEEKG [ECI1] : 0.58
